protocol.summary: Lymphocyte Viability Assay (LCV)
Format: cell-based, murine
protocol.conditions: mouse, splenocytes, 0.05 μg/ml; read-out: % LCV (percentage of positive control)
Could you please report measured viability for the items listed next?
Answers are plain numbers, in %.

Recorded results for 5 compounds are shown here.
INSERT INTO results (compound, metric_name, recorded_number) VALUES
  ('CCCCCCCCCCCCCCC/C=C/C=O', 'viability', 130),
  ('C#CC(O)CCCCCCC (stereo not shown)', 'viability', 72),
  ('CC#CC(O)/C=C/CCCCCCCCCCCCCCC (stereo not shown)', 'viability', 154),
  ('C#CC(O)CCCCCCCCCCCCCCCCC (stereo not shown)', 'viability', 61),
  ('CCCCCCCCCCCCCCCC=O', 'viability', 237);

Respectfully, I request viability for each entry included below.
1. C#CC(O)CCCCCCCCCCCCCCC (stereo not shown)
2. C#CC(C)(O)/C=C/CCCCCCCCCCCCCCC (stereo not shown)

Solution:
1: 105; 2: 53

====

So I've got a bunch of compounds here, and I need their % LCV (percentage of positive control) values.
Test system: lymphoid cells (murine BALB/c splenocytes)
protocol.summary: Lymphocyte Viability Assay (LCV)
Format: cell-based
protocol.conditions: 0.8 μg/ml
Give bare numbers, in %.

Sample answers from the record:
INSERT INTO measurements (compound, u, recorded_number) VALUES
  ('C#CC(O)C=CCCCCCCCCCCCCCCCCCCC (stereo not shown)', '%', 61),
  ('C#CC(O)C=CCCCCCCCCC (stereo not shown)', '%', 30),
  ('C#CC(O)C=CCCCCC (stereo not shown)', '%', 119);

Now look at this entry.
Considering CCCCCC=CC(O)C#CCCCCCCCC (stereo not shown) , its % LCV (percentage of positive control) with lymphoid cells (murine BALB/c splenocytes) was recorded as 105

====

protocol.summary: Lymphocyte Viability Assay (LCV)
Format: cell-based, murine
protocol.conditions: mouse, splenocytes, 3.1 μg/ml; read-out: % LCV (percentage of positive control)
metric.name: viability (%)
Numbers only, in %.

Here are 3 molecules together with their reported answers.
INSERT INTO results (molecule, recorded_number) VALUES
  ('CC#CC(O)/C=C/CCCCCCCCCCCCCCC (stereo not shown)', 86),
  ('C#CC(C)(O)/C=C/CCCCCCCCCCCCCCC (stereo not shown)', 109),
  ('CCCCCCCCCCCCCCC/C=C/C(O)C#N (stereo not shown)', 144);

API: the following record is the query input.
Item: `CCCCCCCCCCCCCCCC=O` | viability: 202

====

Tested on: lymphoid cells (murine BALB/c splenocytes)
protocol.summary: Lymphocyte Viability Assay (LCV)
Type: cell-based
protocol.conditions: 0.05 μg/ml
metric.name: % LCV (percentage of positive control) (%)
Answers are plain numbers, in %.

A selection of reference data follows.
INSERT INTO results (molecule, recorded_number) VALUES
  ('C#CC(O)C=CCCCCCCCCC (centres unmarked)', 35),
  ('C#CC(O)C=CCCCCC (centres unmarked)', 109);

Provide % LCV (percentage of positive control) for all items below, preserving their order.
1. C#CC(O)C=CCCCCCCCCCCCCCCCC (centres unmarked)
2. CCCCCC=CC(O)C#CCCCCCCCC (centres unmarked)
3. C#CC(O)C=CCCCCCCCCCCCCCCCCCCC (centres unmarked)

Solution:
1. 78
2. 128
3. 58
